Protocol description: Pharmacokinetics of Compound I after single and multiple oral doses of solid dispersion tablets
Assay type: in vivo, human
Condition context: human, in vivo, 150 mg, t1/2
Value type: half-life (h)
Give bare numbers, in h.

Qu. # input compound: COC[C@H]1C[C@@H](c2ncc(-c3ccc4c(c3)COc3cc5c(ccc6nc([C@@H]7CC[C@H](C)N7C(=O)[C@@H](NC(=O)OC)C(C)C)[nH]c65)cc3-4)[nH]2)N(C(=O)[C@H](NC(=O)OC)c2ccccc2)C1 ; wanted: its half-life
Ans. 16.2

====

Protocol description: Pharmacokinetics of Compound I after single and multiple oral doses of solid dispersion tablets
Assay type: in vivo, human
Condition context: human, in vivo, 450 mg, Tmax
Value type: Tmax (h)
One number for each entry, in h.

Qu. # input compound: COC[C@H]1C[C@@H](c2ncc(-c3ccc4c(c3)COc3cc5c(ccc6nc([C@@H]7CC[C@H](C)N7C(=O)[C@@H](NC(=O)OC)C(C)C)[nH]c65)cc3-4)[nH]2)N(C(=O)[C@H](NC(=O)OC)c2ccccc2)C1 [Compound I] ; wanted: its Tmax
Ans. 3.25

====

Protocol description: Food effect on Compound I pharmacokinetics (fed vs fasted, light or high-fat breakfast)
Format: in vivo, human
Condition context: human, plasma, oral, 100 mg, 100 mg fed, high-fat breakfast, N = 12
Value type: Cmax
Please make sure the unit comes right after the number.

Qu. # input compound: COC[C@H]1C[C@@H](c2ncc(-c3ccc4c(c3)COc3cc5c(ccc6nc([C@@H]7CC[C@H](C)N7C(=O)[C@@H](NC(=O)OC)C(C)C)[nH]c65)cc3-4)[nH]2)N(C(=O)[C@H](NC(=O)OC)c2ccccc2)C1 [Compound I] ; wanted: its Cmax
Ans. 364 ng/mL

====

Protocol description: Pharmacokinetics of Compound I after single and multiple oral doses of solid dispersion tablets
Assay type: in vivo, human
Condition context: human, in vivo, 450 mg
Value type: AUC(0-t) (ng·h/mL)
One number for each entry, in ng·h/mL.

Qu. # input compound: COC[C@H]1C[C@@H](c2ncc(-c3ccc4c(c3)COc3cc5c(ccc6nc([C@@H]7CC[C@H](C)N7C(=O)[C@@H](NC(=O)OC)C(C)C)[nH]c65)cc3-4)[nH]2)N(C(=O)[C@H](NC(=O)OC)c2ccccc2)C1 [Compound I] ; wanted: its AUC(0-t)
Ans. 9500

====

Protocol description: Food effect on Compound I pharmacokinetics (fed vs fasted, light or high-fat breakfast)
Assay type: in vivo, human
Condition context: human, plasma, oral, 100 mg, 100 mg fasted, light breakfast cohort (Cohort 5), N = 12; read-out: AUClast GLSM
Value type: AUC(0-t)
Please make sure the unit comes right after the number.

Qu. # input compound: COC[C@H]1C[C@@H](c2ncc(-c3ccc4c(c3)COc3cc5c(ccc6nc([C@@H]7CC[C@H](C)N7C(=O)[C@@H](NC(=O)OC)C(C)C)[nH]c65)cc3-4)[nH]2)N(C(=O)[C@H](NC(=O)OC)c2ccccc2)C1 [Compound I] ; wanted: its AUC(0-t)
Ans. 5390 ng·h/mL

====

Protocol description: Pharmacokinetics of Compound I after single and multiple oral doses of solid dispersion tablets
Format: in vivo, human
Condition context: human, in vivo, 150 mg, Tmax
Value type: Tmax (h)
Numbers only, in h.

Qu. # input compound: COC[C@H]1C[C@@H](c2ncc(-c3ccc4c(c3)COc3cc5c(ccc6nc([C@@H]7CC[C@H](C)N7C(=O)[C@@H](NC(=O)OC)C(C)C)[nH]c65)cc3-4)[nH]2)N(C(=O)[C@H](NC(=O)OC)c2ccccc2)C1 [Compound I] ; wanted: its Tmax
Ans. 2.75

Reference source for all entries: patent US20150064252A1
